Source listed as PubChem BioAssay (NCI).

Tested on: 786-0 renal
experimental protocol: NCI tumour cell line growth inhibition, 48 h
assay metric: log10(TGI) (log10 of the value in µM)
Transform log10 | Measure TGI | Unit µM

>>> value("C1CN(c2nnc(N3CCC3)nn2)C1")
1.69

Can you look up the measured log10(TGI) of CCCCC#Cc1c(I)n(C)c(=O)[nH]c1=O for me?
1.48

// log10(TGI) lookup, key: Clc1ccc(C2=CCN3CC=C(c4ccc(Cl)cc4)C23)cc1
1.38

Dear colleague, I am looking for the recorded log10(TGI) of the following molecule: CCCCCCCCC#CCCCCCCCCCC[C@@H]1C(=O)O[C@H](C)[C@@H]1O (tested in a mixture with another compound)
1.50

Which value of log10(TGI) has been reported for CNCCCNc1nc2ccccc2c2c(=O)c3cc(OC)ccc3sc12 in the records?
0.50
